measurement_protocol: Inhibition of recombinant Toxoplasma gondii DXR catalytic domain (68 to 513) expressed in Escherichia coli BL21 using DXP as substrate after 10 mins by Uv-spectrophotometric analysis
Assay type: cell-free
Ki values by entry
measured_attribute: Ki (nM)

INSERT INTO results (molecule, value_reported) VALUES
  ('O=CN(O)CCCP(=O)(O)O', 90),
  ('CC(=O)N(O)CCC(c1ccncc1)P(=O)(O)O (stereo unspecified)', 530),
  ('CC(=O)N(O)CCC(c1cccnc1)P(=O)(O)O (stereo unspecified)', 970),
  ('O=P(O)(O)Cc1ccc(-c2ccccc2)cn1', 2100),
  ('O=c1ccc(-c2ccccc2)cn1O [1-HYDROXY-5-PHENYLPYRIDIN-2(1H)-ONE]', 25600),
  ('O=CN(O)CCC(c1ccncc1)P(=O)(O)O (stereo unspecified)', 79);

These measurements were taken from ChEMBL document CHEMBL2346498.
